- ASSAY SUMMARY: AUC (0 to last) in Sprague-Dawley rat at 10 mg/kg, iv measured upto 1440 mins by LC-MS/MS analysis
- Type: ADME, organism-based
- Set-up: time < 1440 min, dose 10 mg/kg, route iv
- TEST CONTEXT: in vivo
READOUT NAME: AUC(0-t) at 24 h
Give the value; after it, write the unit.

QUERY: What does the data say about its AUC(0-t) at 24 h? Entry: CCn1c(=O)[nH]c(=O)c2c1nc(Cc1cn3cc(C)sc3n1)n2CC1COC1
RESULT: 5000 ng·h/mL

* * *

- ASSAY SUMMARY: Tmax in CD-1 (ICR) mouse at 50 mg/kg, po measured upto 1440 mins by LC-MS/MS analysis
- Type: ADME, organism-based
- TEST CONTEXT: in vivo
READOUT NAME: Tmax (min)
Give the value in min but do not write min after it.

QUERY: Quick one: Tmax of CCn1c(=O)[nH]c(=O)c2c1nc(Cc1cn3cc(C)sc3n1)n2CC1COC1 ?
RESULT: 20
